We begin with a simple list: items and their reported inhibition.
Target: Fatty acid synthase (Homo sapiens)
Test: inhibition of human FAS-TE enzyme activity – biochemical, fluorescence intensity, single concentration, confirmation (AID 624325);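 also: 0% = enzyme with DMSO only and 100% = wells lacking enzyme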
Conditions: recombinant FAS-TE, OMFH fluorogenic substrate, at 15 µM, active compounds read high
Hit rate of the full screen: of about 2,300 compounds, about 1,000 (43%) were called active. The set was probably picked from earlier hits. These entries were drawn from the full list.
Please state the figure in %; there is no need to write the unit.

compound: CC(NC(=O)Nc1cccc([N+](=O)[O-])c1)c1ccc2c(c1)OCO2 (stereo not given)
experimental-result: 84.4
--
compound: CCOc1cc(/C=C(/C#N)c2ccc(Cl)cc2)cc(Cl)c1OCC(=O)O
experimental-result: 63
--
compound: O=C(Nc1cccc([N+](=O)[O-])c1)N1CCc2ccccc2C1
experimental-result: 65.8
--
compound: Nc1c(-c2cccc(Cl)c2)cnn1-c1cccc([N+](=O)[O-])c1
experimental-result: 48.9

As a next step, examine the compound that follows.
Query block: Indicate its recorded inhibition; the compound in question is Cc1nc2c(OCc3ccc(Cl)cc3Cl)cccn2c1N(C)CC1CC1
Result block: 50

====

Target: Fatty acid synthase (Homo sapiens) (UniProt P49327)
Sequence (P49327 whole entry, looked up): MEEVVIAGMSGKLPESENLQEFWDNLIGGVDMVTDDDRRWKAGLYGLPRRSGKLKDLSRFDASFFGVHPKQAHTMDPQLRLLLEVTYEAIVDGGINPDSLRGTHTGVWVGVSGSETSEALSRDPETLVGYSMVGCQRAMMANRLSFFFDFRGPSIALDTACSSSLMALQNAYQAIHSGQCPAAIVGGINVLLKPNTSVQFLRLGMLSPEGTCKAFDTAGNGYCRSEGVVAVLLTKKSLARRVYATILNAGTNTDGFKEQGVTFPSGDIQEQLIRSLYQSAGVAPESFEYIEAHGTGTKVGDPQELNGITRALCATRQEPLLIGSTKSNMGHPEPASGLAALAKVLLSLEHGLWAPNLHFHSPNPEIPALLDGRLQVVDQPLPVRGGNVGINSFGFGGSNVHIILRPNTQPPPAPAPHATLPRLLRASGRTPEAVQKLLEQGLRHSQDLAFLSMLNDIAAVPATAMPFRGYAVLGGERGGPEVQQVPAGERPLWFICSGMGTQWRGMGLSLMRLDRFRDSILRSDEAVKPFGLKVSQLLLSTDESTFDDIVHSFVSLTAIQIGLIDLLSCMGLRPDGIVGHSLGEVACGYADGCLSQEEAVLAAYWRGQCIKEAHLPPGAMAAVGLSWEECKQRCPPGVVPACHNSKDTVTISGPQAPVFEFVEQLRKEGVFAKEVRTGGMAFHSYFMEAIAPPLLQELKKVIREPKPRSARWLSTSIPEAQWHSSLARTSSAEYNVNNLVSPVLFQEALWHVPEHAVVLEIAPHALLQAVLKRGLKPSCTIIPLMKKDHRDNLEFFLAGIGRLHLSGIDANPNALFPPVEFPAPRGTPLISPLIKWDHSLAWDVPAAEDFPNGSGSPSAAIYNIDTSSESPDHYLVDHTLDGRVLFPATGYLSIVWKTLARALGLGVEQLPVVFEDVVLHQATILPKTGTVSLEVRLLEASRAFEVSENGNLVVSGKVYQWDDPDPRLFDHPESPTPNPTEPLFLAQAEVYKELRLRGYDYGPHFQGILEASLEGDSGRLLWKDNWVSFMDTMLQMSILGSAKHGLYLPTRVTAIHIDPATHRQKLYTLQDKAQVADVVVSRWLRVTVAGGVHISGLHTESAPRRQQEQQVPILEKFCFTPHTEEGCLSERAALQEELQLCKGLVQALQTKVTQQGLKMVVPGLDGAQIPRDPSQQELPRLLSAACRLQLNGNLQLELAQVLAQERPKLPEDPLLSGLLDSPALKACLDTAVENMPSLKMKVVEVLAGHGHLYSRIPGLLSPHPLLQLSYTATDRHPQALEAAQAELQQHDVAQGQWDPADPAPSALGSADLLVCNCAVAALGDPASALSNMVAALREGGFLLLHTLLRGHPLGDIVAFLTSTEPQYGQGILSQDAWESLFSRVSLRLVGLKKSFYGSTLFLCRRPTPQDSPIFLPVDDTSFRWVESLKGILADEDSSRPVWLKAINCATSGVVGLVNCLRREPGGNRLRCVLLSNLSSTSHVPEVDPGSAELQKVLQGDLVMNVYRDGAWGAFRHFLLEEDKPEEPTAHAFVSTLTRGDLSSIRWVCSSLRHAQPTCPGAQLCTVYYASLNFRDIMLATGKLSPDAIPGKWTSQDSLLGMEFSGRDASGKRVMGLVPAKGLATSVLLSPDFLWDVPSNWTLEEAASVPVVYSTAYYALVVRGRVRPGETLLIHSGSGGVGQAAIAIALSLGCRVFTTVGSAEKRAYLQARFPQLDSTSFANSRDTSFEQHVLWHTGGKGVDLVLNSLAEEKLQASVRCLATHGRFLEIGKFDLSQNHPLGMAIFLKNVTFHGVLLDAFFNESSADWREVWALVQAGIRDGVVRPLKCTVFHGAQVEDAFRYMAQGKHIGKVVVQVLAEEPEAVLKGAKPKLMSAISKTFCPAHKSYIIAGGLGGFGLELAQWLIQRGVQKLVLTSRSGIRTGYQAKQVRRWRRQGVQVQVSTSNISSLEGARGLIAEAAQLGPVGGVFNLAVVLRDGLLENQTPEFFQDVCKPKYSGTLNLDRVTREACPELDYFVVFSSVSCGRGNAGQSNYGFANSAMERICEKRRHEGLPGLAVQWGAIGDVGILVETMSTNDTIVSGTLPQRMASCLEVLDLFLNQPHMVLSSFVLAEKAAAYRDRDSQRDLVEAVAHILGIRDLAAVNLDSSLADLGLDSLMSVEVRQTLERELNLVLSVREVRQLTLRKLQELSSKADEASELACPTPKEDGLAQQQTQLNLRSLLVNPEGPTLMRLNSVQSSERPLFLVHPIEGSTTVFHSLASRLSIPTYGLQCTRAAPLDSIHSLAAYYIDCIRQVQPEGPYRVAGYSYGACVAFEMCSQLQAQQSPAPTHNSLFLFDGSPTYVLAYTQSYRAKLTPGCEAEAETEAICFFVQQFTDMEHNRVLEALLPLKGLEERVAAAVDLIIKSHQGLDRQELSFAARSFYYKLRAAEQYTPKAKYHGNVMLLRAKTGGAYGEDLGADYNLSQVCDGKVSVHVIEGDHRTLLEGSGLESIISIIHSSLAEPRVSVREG
Assay: inhibition of human FAS-TE enzyme activity – biochemical, fluorescence intensity, single concentration, confirmation (AID 624325);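 also: 0% = enzyme with DMSO only and 100% = wells lacking enzyme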
Conditions: recombinant FAS-TE, OMFH fluorogenic substrate, at 15 µM, active compounds read high
Hit rate of the full screen: of about 2,300 compounds, about 1,000 (43%) were called active. So high a share suggests a set chosen from earlier hits. A selection follows.
Outcome label depends on inhibition relative to 30%: at/above gives Criterion met, below gives Criterion not met.

compound: O=C(NCCC1=CCCCC1)c1ccc(Cl)c([N+](=O)[O-])c1
cat: Criterion met
--
compound: COc1ccc(NS(=O)(=O)c2cc(NC(=O)/C=C/c3cc(OC)c(OC)c(OC)c3)ccc2N2CCCCC2)cc1
cat: Criterion not met
--
compound: CC(C=Cc1ccccc1)=NNS(=O)(=O)c1ccc([N+](=O)[O-])cc1
cat: Criterion met
--
compound: Cc1ccc2c(c1)-c1c(ssc1=S)C(C)(C)N2C(=O)CN1C(=O)c2ccccc2C1=O
cat: Criterion not met
--
compound: CCC(CC)COC(=O)C1=C(C)NC(=O)NC1c1ccc([N+](=O)[O-])cc1 (stereo unspecified)
cat: Criterion met

Query block: I'd appreciate it if you could say whether CCOC1=C2CN(S(=O)(=O)c3ccc(C)cc3)[C@H](c3cccs3)C[C@H]2[C@H]2C(=O)N(c3ccccc3)C(=O)[C@H]2C1 has inhibition at least equal to 30%.
Result block: Criterion met

Query block: I'd appreciate it if you could say whether O=C(OC1CCOC1=O)c1ccc(-c2nc3ccccc3s2)s1 (stereo unspecified) has inhibition at least equal to 30%.
Result block: Criterion met

Query block: I'd appreciate it if you could say whether O=C(Nc1ccc(C(F)(F)F)cc1)c1cccc(-n2cnnn2)c1 has inhibition at least equal to 30%.
Result block: Criterion met

====

Molecular target: Fatty acid synthase (Homo sapiens) (UniProt P49327)
Assay: inhibition of human FAS-TE enzyme activity – biochemical, fluorescence intensity, single concentration, confirmation (AID 624325);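 also: 0% = enzyme with DMSO only and 100% = wells lacking enzyme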
Settings: recombinant FAS-TE, OMFH fluorogenic substrate, at 15 µM
Out of some 2,300 compounds screened, about 1,000 (43%) were called active.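 Rule for the calls: active = compounds inhibiting the enzyme by at least 50% at 15 µM in any one of the replicates; inactive = the rest.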 The set was probably picked from earlier hits. These entries were drawn from the full list.
Can you answer with just one of these options? true (1) (active), false (0) (inactive)

Solved cases (2 shown):
compound: Cc1ccc(N2C(=O)C3C(c4ccccc4)(C2=O)C3(c2ccccc2)c2ccccc2)cc1 (stereo not drawn)
cat: false (0)

compound: O=C(c1ccc(Cl)c([N+](=O)[O-])c1)N1CCN(c2ccccc2)CC1
cat: true (1)

Query block: Tell me the assay call for C#CCN(C[C@H]1[C@H](OC(=O)NC2CCCC2)[C@H](OC(=O)NC2CCCC2)C[C@H]2C(=O)N(c3ccccc3)C(=O)[C@@H]12)S(=O)(=O)c1ccc(C)cc1 please.
Result block: true (1)

Query block: Tell me the assay call for Cc1cccc(N=C2NC(=O)/C(=C/c3cn(C)c4ccccc34)S2)c1 please.
Result block: false (0)

Query block: Tell me the assay call for O=C(C[C@H]1C[C@H](C(=O)N2CCOCC2)[C@@]2(CCC3CCCC3)c3[nH]c4ccc(Cl)cc4c3CCN2C1=O)NCc1ccco1 please.
Result block: false (0)

Query block: Tell me the assay call for CNC(=O)/C(=C\C=C\c1ccccc1)NC(=O)c1ccc([N+](=O)[O-])cc1 please.
Result block: true (1)

====

Biological target: Fatty acid synthase (Homo sapiens)
Assay: inhibition of human FAS-TE enzyme activity – biochemical, fluorescence intensity, single concentration, confirmation (AID 624325);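 also: 0% = enzyme with DMSO only and 100% = wells lacking enzyme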
Conditions: recombinant FAS-TE, OMFH fluorogenic substrate, at 15 µM, active compounds read high
In all, about 2,300 compounds went through this assay and about 1,000 (43%) were called active. So high a share suggests a set chosen from earlier hits. A selection follows.
attribute-measured: inhibition (%)
Please state the figure in %; there is no need to write the unit.

Some entries whose results are on file:
molecule: O=C(Nc1ccc(N2C(=O)c3cccc4cccc(c34)C2=O)cc1)c1ccc(N2CCCCC2)c([N+](=O)[O-])c1
scale-unit: %
inhibition: 10.5
//
molecule: O=C(Nc1ccc(C2CC2(Cl)Cl)cc1)c1cccc([N+](=O)[O-])c1 (configuration not stated)
scale-unit: %
inhibition: 19.8
//
molecule: COc1ccc(S(=O)(=O)N2CCCCC2)cc1NC(=O)c1cc([N+](=O)[O-])ccc1N1CCOCC1
scale-unit: %
inhibition: 25.8
//
molecule: CC(C)(C)NC(=O)NC(=O)COC(=O)Cc1ccc(Cl)cc1Cl
scale-unit: %
inhibition: 68.1

Query block: Indicate its recorded inhibition; the molecule in question is O=C(COC(=O)c1cc([N+](=O)[O-])ccc1NCc1ccccc1)NC1CCCCC1
Result block: 37.6

Query block: Indicate its recorded inhibition; the molecule in question is O=C1[C@H]2[C@@H](c3ccc(F)cc3)N3C(=O)N(c4ccc(C(F)(F)F)cc4)C(=O)[C@@]3(Cc3ccccc3)[C@H]2C(=O)N1C1CCCCC1
Result block: 17.3

Query block: Indicate its recorded inhibition; the molecule in question is Cc1cc(C(=O)N/N=C/c2cc([N+](=O)[O-])cc(C)c2O)n[nH]1
Result block: 72.6

Query block: Indicate its recorded inhibition; the molecule in question is COc1ccc(C2Nc3ccccc3C(=O)N2c2ccc(Cl)cc2)cc1Cn1cc([N+](=O)[O-])cn1 (configuration not stated)
Result block: 41.9

Query block: Indicate its recorded inhibition; the molecule in question is COc1ccc(C2CC(c3ccccc3)=NN2C(=O)c2ccc(Cl)c([N+](=O)[O-])c2)cc1 (configuration not stated)
Result block: 21.3

Query block: Indicate its recorded inhibition; the molecule in question is COc1ccc(C2=NN(C(=O)CSc3nc(=O)n4ccc(C)cc4n3)C(c3ccc(C)cc3)C2)cc1 (configuration not stated)
Result block: 46

Query block: Indicate its recorded inhibition; the molecule in question is O=C1OCCN1C(=O)[C@H]1[C@H](c2ccc(Cl)cc2)C(c2cccc(Cl)c2)=NN1c1ccc(Br)cc1
Result block: 15.5

Query block: Indicate its recorded inhibition; the molecule in question is CCN1C(=O)[C@H]2[C@@H](c3ccc(SC4CCCCC4)c(OC)c3)N[C@@](Cc3ccccc3)(C(=O)OC)[C@H]2C1=O
Result block: 15.5
